# procedure_summary: Human Phase 1 pharmacokinetics of GC4403
# Type: in vivo
# recorded_conditions: both sexes, plasma, 11.1 mg IV over 30 minutes, read-out: AUC0-24 h
readout_kind: AUC(0-t)
The reply should consist of the numeric value with the unit placed after it.

Dear colleague, I am looking for the recorded AUC(0-t) of the following compound: [Cl][Mn-5]1234([Cl])[n+]5c6cccc5C[NH+]1[C@@H]1CCCC[C@H]1[NH+]2CC[NH+]3[C@@H]1CCCC[C@H]1[NH+]4C6 (stereo partly shown)
1050 ng·h/mL

----------
# procedure_summary: Human Phase 1 pharmacokinetics of GC4419
# recorded_conditions: both sexes, in vivo, 75 mg IV over 15 minutes
# Description: A human clinical trial entitled, “A Double-Blind, Placebo-Controlled, Single Rising Dose Study to Evaluate the Safety and Tolerability and Determine the Pharmacokinetics of M40419 Administered as a I5-Minute Intravenous Infusion in Healthy Subjects,” was conducted on 54 subjects. […]
readout_kind: AUC(0-inf) (ng·h/mL)
Use ng·h/mL as the unit, but write only the number.

Dear colleague, I am looking for the recorded AUC(0-inf) of the following compound: [Cl][Mn-5]1234([Cl])[n+]5c6cccc5C[NH+]1[C@H]1CCCC[C@@H]1[NH+]2CC[NH+]3[C@H]1CCCC[C@@H]1[NH+]4C6 (stereo partly shown)
6490

----------
# procedure_summary: 14-day repeat dose toxicity of GC4419 in dog
# Assay type: in vivo, beagle dogs
# recorded_conditions: both sexes, dog, in vivo, beagle dogs, IV over 15 minutes once daily
# Experimental: GC4419 was evaluated in a GLP study in beagle dogs. GC4419 was administered intravenously (IV) over 15 minutes, once daily, to beagle dogs for 14 consecutive days. GC4419 was administered IV into the cephalic vein (4 mL/kg) to 3 groups of dogs (4 animals/sex/group) at dosages of 2.5, 5.0 and 7.5 mg/kg with a fourth group receiving vehicle (26 mM sodium bicarbonate in normal saline). […] All animals recovered from these effects. […]
readout_kind: NOAEL at 14 days
The reply should consist of the numeric value with the unit placed after it.

Dear colleague, I am looking for the recorded NOAEL at 14 days of the following compound: [Cl][Mn-5]1234([Cl])[n+]5c6cccc5C[NH+]1[C@H]1CCCC[C@@H]1[NH+]2CC[NH+]3[C@H]1CCCC[C@@H]1[NH+]4C6 (stereo partly shown) [GC4419]
5 mg/kg/day

----------
# procedure_summary: Human Phase 1 pharmacokinetics of GC4403
# Type: in vivo
# recorded_conditions: both sexes, plasma, 2.2 mg IV over 30 minutes, read-out: AUC0-24 h
readout_kind: AUC(0-t) (ng·h/mL)
Use ng·h/mL as the unit, but write only the number.

Dear colleague, I am looking for the recorded AUC(0-t) of the following compound: [Cl][Mn-5]1234([Cl])[n+]5c6cccc5C[NH+]1[C@@H]1CCCC[C@H]1[NH+]2CC[NH+]3[C@@H]1CCCC[C@H]1[NH+]4C6 (stereo partly shown) [GC4403]
184

----------
# procedure_summary: Human Phase 1 pharmacokinetics of GC4419
# recorded_conditions: both sexes, in vivo, 112 mg IV over 15 minutes
readout_kind: AUC(0-inf) (ng·h/mL)
Use ng·h/mL as the unit, but write only the number.

Dear colleague, I am looking for the recorded AUC(0-inf) of the following compound: [Cl][Mn-5]1234([Cl])[n+]5c6cccc5C[NH+]1[C@H]1CCCC[C@@H]1[NH+]2CC[NH+]3[C@H]1CCCC[C@@H]1[NH+]4C6 (stereo partly shown)
10400
